Reference for the values: ChEMBL document CHEMBL4417631

target: Interleukin-23 receptor (Homo sapiens); assay: Inhibition of interleukin-23 binding to human interleukin-23 receptor incubated for 2 hrs by competitive binding ELISA
Sequence (Q5VWK5 whole entry): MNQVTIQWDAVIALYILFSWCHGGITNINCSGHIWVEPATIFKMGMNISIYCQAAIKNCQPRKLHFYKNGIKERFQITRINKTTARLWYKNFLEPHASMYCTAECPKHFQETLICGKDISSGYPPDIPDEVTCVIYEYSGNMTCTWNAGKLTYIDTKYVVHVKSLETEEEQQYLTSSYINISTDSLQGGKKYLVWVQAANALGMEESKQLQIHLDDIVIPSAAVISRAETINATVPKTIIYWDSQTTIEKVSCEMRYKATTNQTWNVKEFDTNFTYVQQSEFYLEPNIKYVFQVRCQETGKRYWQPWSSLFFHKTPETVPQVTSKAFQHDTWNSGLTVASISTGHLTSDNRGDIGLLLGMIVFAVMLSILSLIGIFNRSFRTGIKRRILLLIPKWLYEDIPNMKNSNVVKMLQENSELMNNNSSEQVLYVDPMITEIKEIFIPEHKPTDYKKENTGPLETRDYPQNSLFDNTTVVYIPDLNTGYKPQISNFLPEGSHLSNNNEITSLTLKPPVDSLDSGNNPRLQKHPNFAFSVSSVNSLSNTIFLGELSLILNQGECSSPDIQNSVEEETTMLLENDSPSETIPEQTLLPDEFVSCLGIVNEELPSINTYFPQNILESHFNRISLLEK
pIC50: −log10 of the molar value. *1 amine or outer side, *2 acyl side, *3 side chain or, on linkers, in order; H or OH if unused. Where a SMILES comes first, the peptide text is derived from it. Bridges are numbered along the chain shown (N, C = ends). [ ]: non-standard residue; d: D form. Abu(4-yl) = O=C([C@H](CC[*:3])N[*:1])[*:2]; AEF = NCCOc1ccc(C[C@H](N)C(=O)O)cc1; Tic = O=C(O)[C@@H]1Cc2ccccc2CN1; αMeK = C[C@](N)(CCCCN)C(=O)O; Dap = NC[C@H](N)C(=O)O
parameter: pIC50

# example entries with known answers
CC(=O)N[C@H](C(=O)N[C@@H](CCC(N)=O)C(=O)N[C@H](C(=O)N[C@@H](Cc1c[nH]c2ccccc12)C(=O)N[C@@H](CCC(N)=O)C(=O)N[C@H](C(=O)N[C@@H](Cc1ccc(O)cc1)C(=O)N[C@@H](Cc1c[nH]c2ccccc12)C(=O)N[C@H](CC(N)=O)C(=O)N[C@@H](CCC(=O)O)C(=O)N[C@@H](CC(N)=O)C(=O)NCC(N)=O)C(C)(C)S)[C@@H](C)O)C(C)(C)S :: 5.00 to 6.00
CC(=O)N[C@H]1CCSC[C@@H](C(=O)N[C@@H](Cc2ccc(OCCN)cc2)C(=O)N[C@@H](Cc2ccc3ccccc3c2)C(=O)N[C@@](C)(CCCCN)C(=O)N[C@@H](CCC(=O)O)C(=O)N[C@@H](CC(N)=O)C(=O)NCC(N)=O)NC(=O)[C@H](CCC(N)=O)NC(=O)[C@H](c2ccc(OCCN)cc2)NC(=O)[C@H]([C@@H](C)O)NC(=O)[C@H](CCC(N)=O)NC1=O :: < 5.52
CC(=O)NCCCC[C@H](NC(=O)[C@](C)(CCCCN)NC(=O)[C@H](Cc1ccc2ccccc2c1)NC(=O)[C@H](Cc1ccc(Cl)c(Cl)c1)NC(=O)[C@@H]1CSCC[C@H](NC(C)=O)C(=O)N[C@@H](CCC(N)=O)C(=O)N[C@@H]([C@@H](C)O)C(=O)N[C@@H](Cc2c[nH]c3ccccc23)C(=O)N[C@@H](CCC(N)=O)C(=O)N1)C(=O)N[C@@H](CC(N)=O)C(=O)NCC(N)=O :: 6.00 to 7.00
CC(=O)N[C@@H](CS)C(=O)N[C@@H](CCC(N)=O)C(=O)N[C@H](C(=O)N[C@@H](Cc1c[nH]c2ccccc12)C(=O)N[C@@H](CCC(N)=O)C(=O)N[C@@H](CS)C(=O)N1Cc2ccccc2C[C@H]1C(=O)N[C@@H](Cc1c[nH]c2ccccc12)C(=O)N[C@@H](CCC(C)C)C(=O)N[C@@H](CCC(=O)O)C(=O)N[C@@H](CC(N)=O)C(=O)NCC(N)=O)[C@@H](C)O :: < 4.52
CC(C)[C@H](NC(=O)[C@H](Cc1ccc2ccccc2c1)NC(=O)[C@H](CC(=O)O)NC(=O)[C@H](C)NC(=O)[C@@H](N)CS)C(=O)N[C@@H](CS)C(=O)N[C@@H](Cc1ccc(O)cc1)C(=O)N[C@@H](Cc1c[nH]c2ccccc12)C(=O)N[C@@H](Cc1cnc[nH]1)C(=O)N[C@H](C(=O)N[C@@H](Cc1ccccc1)C(=O)NCC(N)=O)[C@@H](C)O :: < 6.00
CC(=O)NCCCC[C@H](NC(=O)[C@](C)(CCCCN)NC(=O)[C@@H]1Cc2ccccc2CN1C(=O)[C@H](Cc1ccc(OCCN)cc1)NC(=O)[C@@H]1CSCC[C@H](NC(C)=O)C(=O)N[C@@H](CN)C(=O)N[C@@H]([C@@H](C)O)C(=O)N[C@@H](Cc2c[nH]c3ccccc23)C(=O)N[C@@H](CCC(N)=O)C(=O)N1)C(=O)N[C@@H](CC(N)=O)C(=O)NCC(N)=O (Ac-[Abu(4-yl)][Dap]TWQC[AEF][Tic][αMeK]K(Ac)NG-NH2; thioether 1-6) :: < 5.52
CC(=O)N[C@@H](CS)C(=O)N[C@@H](C)C(=O)N[C@@H](CC(=O)O)C(=O)N[C@@H](Cc1c[nH]c2ccccc12)C(=O)N[C@H](C(=O)N[C@@H](CS)C(=O)N[C@@H](Cc1ccc(O)cc1)C(=O)N[C@@H](Cc1cccc2ccccc12)C(=O)N[C@@H](Cc1cnc[nH]1)C(=O)NC(C)(C)C(=O)N[C@@H](Cc1ccccc1)C(=O)NCC(N)=O)C(C)C :: < 6.00
CC(=O)NCCCC[C@](C)(NC(=O)[C@H](Cc1ccc2ccccc2c1)NC(=O)[C@H](Cc1ccc(OCCNC(C)=O)cc1)NC(=O)[C@@H](NC(=O)[C@H](CCC(N)=O)NC(=O)[C@H](Cc1c[nH]c2ccccc12)NC(=O)[C@@H](NC(=O)[C@H](CNC(C)=O)NC(=O)[C@@H](NC(C)=O)C(C)(C)S)[C@@H](C)O)C(C)(C)S)C(=O)N[C@@H](CCC(=O)O)C(=O)N[C@@H](CC(N)=O)C(=O)NCC(N)=O :: 7.60 to 8.00

Problem: Dear colleague, I am looking for the recorded pIC50 of the following compound: CC(=O)N[C@@H](CS)C(=O)N[C@@H](C)C(=O)N[C@@H](CC(=O)O)C(=O)N[C@@H](Cc1c[nH]c2ccccc12)C(=O)N[C@H](C(=O)N[C@@H](CS)C(=O)N[C@@H](Cc1ccc(O)cc1)C(=O)N[C@@H](Cc1c[nH]c2ccccc12)C(=O)N[C@@H](Cc1cnc[nH]1)C(=O)N[C@@H](CC(N)=O)C(=O)N[C@@H](Cc1cnc[nH]1)C(=O)N[C@@H](CO)C(=O)N[C@@H](CCC(=O)O)C(=O)NCC(=O)N[C@@H](CO)C(=O)NCC(N)=O)C(C)C (Ac-CADWVCYWHNHSEGSG-NH2)
Solution: 6.00 to 6.30

Problem: Dear colleague, I am looking for the recorded pIC50 of the following compound: `CC(=O)N[C@@H](CS)C(=O)N[C@@H](C)C(=O)N[C@@H](CC(=O)O)C(=O)N[C@@H](Cc1c[nH]c2ccccc12)C(=O)N[C@H](C(=O)N[C@@H](CS)C(=O)N[C@@H](Cc1ccc(O)cc1)C(=O)N[C@@H](Cc1c[nH]c2ccccc12)C(=O)N[C@@H](Cc1cnc[nH]1)C(=O)N[C@@H](CCCCN)C(=O)N[C@@H](Cc1ccccc1)C(=O)NCC(=O)O)C(C)C`
Solution: < 6.00
